# System: HLA-A*24
# assay summary: MHC binding assay, UV-ligand exchange with beta2m ELISA, HLA-A*24
# Set-up: species or system human
# experimental parameters: binding to HLA-A*24 ranged by peptide exchange yield (UV-ligand exchange, beta2m ELISA)
measurement label: Peptide exchange

Some entries whose results are on file:
substance | target | assay result
297 (TYIDTRTVF; listed as Homo sapiens) [compound 297] | HLA-A*24 | ++++ (>=75% = ++++)
362 (VYNYAEQTL; listed as Homo sapiens) [compound 362] | HLA-A*24 | ++ (20%-49% = ++)
132 (RYPALFPVL; listed as Homo sapiens) [compound 132] | HLA-A*24 | ++++ (>=75% = ++++)
304 (EYNEVANLF; listed as Homo sapiens) [compound 304] | HLA-A*24 | +++ (50%-75% = +++)

INPUT: Reported Peptide exchange for 225 (TYTNTLERL; listed as Homo sapiens) [compound 225] : what is it?
OUTPUT: +++ (50%-75% = +++)

###

# Tested on: HLA-A*24
# assay summary: MHC binding assay, UV-ligand exchange with beta2m ELISA, HLA-A*24
# Design: species or system human
# experimental parameters: binding to HLA-A*24 ranged by peptide exchange yield (UV-ligand exchange, beta2m ELISA)
measurement label: Peptide exchange

# example entries with known answers
substance | Peptide exchange
143 (KYIFQLNEI; listed as Homo sapiens) [compound 143] | +++ (50%-75% = +++)
179 (TYIPVGLGRLL; listed as Homo sapiens) [compound 179] | +++ (50%-75% = +++)
236 (VYLPKIPSW; listed as Homo sapiens) [compound 236] | +++ (50%-75% = +++)
284 (DYLKDPVTI; listed as Homo sapiens) [compound 284] | +++ (50%-75% = +++)
245 (LYPQLFVVL; listed as Homo sapiens) [compound 245] | +++ (50%-75% = +++)

INPUT: Which Peptide exchange is listed for 152 (KFFDDLGDELLF; listed as Homo sapiens) [compound 152] ?
OUTPUT: ++ (20%-49% = ++)

INPUT: // next record 198 (DYVGFTLKI; listed as Homo sapiens) [compound 198]
OUTPUT: ++ (20%-49% = ++)

INPUT: Another substance: 273 (IYGEKLQFIF; listed as Homo sapiens) [compound 273]
OUTPUT: +++ (50%-75% = +++)

###

# target: HLA-A*02 (Homo sapiens, UniProt P04439, D140Y/D185E/D98H/E176V/E277Q/G131W/G231S/I119V/I121R/I166T/I218V/L300P/N151K/N90K/P208A/P217A/Q86G/Q94H/R138H/R169H)
# assay summary: MHC binding assay, UV-ligand exchange with beta2m ELISA, HLA-A*02
# experimental parameters: binding to HLA-A*02 ranged by peptide exchange yield (UV-ligand exchange, beta2m ELISA)
measurement label: Peptide exchange

Check out these entries, answers already filled in.
substance | Peptide exchange
338 (LLYDGKLSSA; listed as Homo sapiens) [compound 338] | ++ (20%-49% = ++)
13 (VLRDNIQGI; listed as Homo sapiens) [compound 13] | +++ (50%-75% = +++)
45 (VLGPTPELV; listed as Homo sapiens) [compound 45] | +++ (50%-75% = +++)
72 (GMIGFQVLL; listed as Homo sapiens) [compound 72] | +++ (50%-75% = +++)
57 (VLISSTVRL; listed as Homo sapiens) [compound 57] | ++ (20%-49% = ++)
322 (ALVSGGVAQA; listed as Homo sapiens) [compound 322] | +++ (50%-75% = +++)

INPUT: Which Peptide exchange value belongs to 330 (FLWPKEVEL; listed as Homo sapiens) [compound 330] ?
OUTPUT: +++ (50%-75% = +++)

INPUT: Now try 328 (SVDSAPAAV; listed as Homo sapiens) [compound 328] .
OUTPUT: ++ (20%-49% = ++)

INPUT: Would you mind doing 19 (TLLPTVLTL; listed as Homo sapiens) [compound 19] as well?
OUTPUT: +++ (50%-75% = +++)

###

# Test system: HLA-A*24
# assay summary: MHC binding assay, UV-ligand exchange with beta2m ELISA, HLA-A*24
# Set-up: species or system human
# experimental parameters: binding to HLA-A*24 ranged by peptide exchange yield (UV-ligand exchange, beta2m ELISA)
measurement label: Peptide exchange

substance | Peptide exchange
180 (KYLQVVGMF; listed as Homo sapiens) [compound 180] | +++ (50%-75% = +++)
99 (QYILAVPVL; listed as Homo sapiens) [compound 99] | ++++ (>=75% = ++++)
145 (VYALKVRTI; listed as Homo sapiens) [compound 145] | +++ (50%-75% = +++)
342 (NYAFLHRTL; listed as Homo sapiens) [compound 342] | +++ (50%-75% = +++)
344 (EYNSDLHQF; listed as Homo sapiens) [compound 344] | +++ (50%-75% = +++)
187 (AYAANVHYL; listed as Homo sapiens) [compound 187] | ++++ (>=75% = ++++)

INPUT: What value of Peptide exchange has been reported for the following substance? 317 (VFDTSIAQLF; listed as Homo sapiens) [compound 317]
OUTPUT: +++ (50%-75% = +++)

INPUT: // query: 217 (IYISNSIYF; listed as Homo sapiens) [compound 217]
OUTPUT: ++++ (>=75% = ++++)

INPUT: Try 219 (SYLKAVFNL; listed as Homo sapiens) [compound 219] next.
OUTPUT: +++ (50%-75% = +++)

###

# Tested on: HLA-A*24
# assay summary: MHC binding assay, UV-ligand exchange with beta2m ELISA, HLA-A*24
# Parameters: species or system human
# experimental parameters: binding to HLA-A*24 ranged by peptide exchange yield (UV-ligand exchange, beta2m ELISA)
measurement label: Peptide exchange

substance | Peptide exchange
279 (VWLPASVLF; listed as Homo sapiens) [compound 279] | +++ (50%-75% = +++)
352 (QYGGDLTNTF; listed as Homo sapiens) [compound 352] | +++ (50%-75% = +++)
371 (AYSHLRYVF; listed as Homo sapiens) [compound 371] | ++ (20%-49% = ++)
374 (VFLPRVTEL; listed as Homo sapiens) [compound 374] | ++ (20%-49% = ++)
355 (IYVTGGHLF; listed as Homo sapiens) [compound 355] | +++ (50%-75% = +++)

INPUT: Return reported Peptide exchange; argument: 268 (IFITKALQI; listed as Homo sapiens) [compound 268]
OUTPUT: ++ (20%-49% = ++)

INPUT: Another substance to check: 226 (MYLKLVQLF; listed as Homo sapiens) [compound 226]
OUTPUT: ++ (20%-49% = ++)

INPUT: 364 (KYLNENQLSQL; listed as Homo sapiens) [compound 364] ?
OUTPUT: +++ (50%-75% = +++)

###

# System: HLA-A*24
# assay summary: MHC binding assay, UV-ligand exchange with beta2m ELISA, HLA-A*24
# Set-up: species or system human
# experimental parameters: binding to HLA-A*24 ranged by peptide exchange yield (UV-ligand exchange, beta2m ELISA)
measurement label: Peptide exchange

Previously resolved entries follow.
substance | Peptide exchange
348 (IYLEHTESI; listed as Homo sapiens) [compound 348] | +++ (50%-75% = +++)
167 (RYGFYYVEF; listed as Homo sapiens) [compound 167] | +++ (50%-75% = +++)
228 (IYQYVADNF; listed as Homo sapiens) [compound 228] | +++ (50%-75% = +++)
174 (VYEKNGYIYF; listed as Homo sapiens) [compound 174] | +++ (50%-75% = +++)

Okay, next one:
INPUT: Query (substance): 310 (IYAPTLLVF; listed as Homo sapiens) [compound 310] ; field requested: Peptide exchange
OUTPUT: +++ (50%-75% = +++)

###

# target: HLA-A*02 (Homo sapiens, UniProt P04439, D140Y/D185E/D98H/E176V/E277Q/G131W/G231S/I119V/I121R/I166T/I218V/L300P/N151K/N90K/P208A/P217A/Q86G/Q94H/R138H/R169H)
# assay summary: MHC binding assay, UV-ligand exchange with beta2m ELISA, HLA-A*02
# experimental parameters: binding to HLA-A*02 ranged by peptide exchange yield (UV-ligand exchange, beta2m ELISA)
measurement label: Peptide exchange

Guide cases for Peptide exchange, answers given:
substance | Peptide exchange
25 (IQADDFRTL; listed as Homo sapiens) [compound 25] | ++ (20%-49% = ++)
63 (TLSSERDFAL; listed as Homo sapiens) [compound 63] | + (<20% = +)
8 (KLGPFLLNA; listed as Homo sapiens) [compound 8] | +++ (50%-75% = +++)
4 (ELAEIVFKV; listed as Homo sapiens) [compound 4] | +++ (50%-75% = +++)
333 (GTFLEGVAK; listed as Homo sapiens) [compound 333] | +++ (50%-75% = +++)
47 (GLYQAQVNL; listed as Homo sapiens) [compound 47] | +++ (50%-75% = +++)
64 (GLSSSSYEL; listed as Homo sapiens) [compound 64] | ++ (20%-49% = ++)
5 (SLFGQEVYC; listed as Homo sapiens) [compound 5] | +++ (50%-75% = +++)
17 (ILHEHHIFL; listed as Homo sapiens) [compound 17] | +++ (50%-75% = +++)
28 (TLYSMDLMKV; listed as Homo sapiens) [compound 28] | +++ (50%-75% = +++)

INPUT: Entry 43 (LLWAGPVTA; listed as Homo sapiens) [compound 43] : reported Peptide exchange = ?
OUTPUT: +++ (50%-75% = +++)

INPUT: Try this substance too: 35 (YVLPKLYVKL; listed as Homo sapiens) [compound 35]
OUTPUT: ++ (20%-49% = ++)

INPUT: Here is the next substance: 323 (ILSVVNSQL; listed as Homo sapiens) [compound 323]
OUTPUT: +++ (50%-75% = +++)

INPUT: Repeat with 39 (ALMAVVSGL; listed as Homo sapiens) [compound 39]
OUTPUT: +++ (50%-75% = +++)

INPUT: Param item: 91 (SSLEPQIQPV; listed as Homo sapiens) [compound 91]
OUTPUT: + (<20% = +)

INPUT: And what about the substance 32 (ILADEAFFSV; listed as Homo sapiens) [compound 32] ?
OUTPUT: +++ (50%-75% = +++)

INPUT: Follow-up entry: 84 (FLEEEITRV; listed as Homo sapiens) [compound 84]
OUTPUT: +++ (50%-75% = +++)

INPUT: Moving on to the next substance: 93 (SLLTQPIFL; listed as Homo sapiens) [compound 93]
OUTPUT: +++ (50%-75% = +++)

INPUT: Same question, 60 (FLIDTSASM; listed as Homo sapiens) [compound 60] this time
OUTPUT: ++ (20%-49% = ++)

INPUT: 340 (SVAKTILKR; listed as Homo sapiens) [compound 340] , same question.
OUTPUT: ++ (20%-49% = ++)

INPUT: Try 321 (SLWFKPEEL; listed as Homo sapiens) [compound 321] next.
OUTPUT: +++ (50%-75% = +++)

INPUT: Repeat with 9 (FLGDYVENL; listed as Homo sapiens) [compound 9]
OUTPUT: ++ (20%-49% = ++)

INPUT: Another: 49 (LLDESKLTL; listed as Homo sapiens) [compound 49]
OUTPUT: +++ (50%-75% = +++)

INPUT: Next substance: 10 (KTLDVFNIIL; listed as Homo sapiens) [compound 10]
OUTPUT: ++ (20%-49% = ++)

INPUT: Let us now turn to 23 (AQTVVVIKA; listed as Homo sapiens) [compound 23]
OUTPUT: + (<20% = +)

INPUT: And for 14 (LLDHLSFINKI; listed as Homo sapiens) [compound 14] ?
OUTPUT: ++ (20%-49% = ++)

INPUT: For 82 (VLLRVLIL; listed as Homo sapiens) [compound 82] then?
OUTPUT: ++ (20%-49% = ++)
